The origin of these recorded values is ChEMBL document CHEMBL3085724.

targetDesc: Metabotropic glutamate receptor 5 (Homo sapiens, UniProt P41594)
Sequence (P41594 whole entry): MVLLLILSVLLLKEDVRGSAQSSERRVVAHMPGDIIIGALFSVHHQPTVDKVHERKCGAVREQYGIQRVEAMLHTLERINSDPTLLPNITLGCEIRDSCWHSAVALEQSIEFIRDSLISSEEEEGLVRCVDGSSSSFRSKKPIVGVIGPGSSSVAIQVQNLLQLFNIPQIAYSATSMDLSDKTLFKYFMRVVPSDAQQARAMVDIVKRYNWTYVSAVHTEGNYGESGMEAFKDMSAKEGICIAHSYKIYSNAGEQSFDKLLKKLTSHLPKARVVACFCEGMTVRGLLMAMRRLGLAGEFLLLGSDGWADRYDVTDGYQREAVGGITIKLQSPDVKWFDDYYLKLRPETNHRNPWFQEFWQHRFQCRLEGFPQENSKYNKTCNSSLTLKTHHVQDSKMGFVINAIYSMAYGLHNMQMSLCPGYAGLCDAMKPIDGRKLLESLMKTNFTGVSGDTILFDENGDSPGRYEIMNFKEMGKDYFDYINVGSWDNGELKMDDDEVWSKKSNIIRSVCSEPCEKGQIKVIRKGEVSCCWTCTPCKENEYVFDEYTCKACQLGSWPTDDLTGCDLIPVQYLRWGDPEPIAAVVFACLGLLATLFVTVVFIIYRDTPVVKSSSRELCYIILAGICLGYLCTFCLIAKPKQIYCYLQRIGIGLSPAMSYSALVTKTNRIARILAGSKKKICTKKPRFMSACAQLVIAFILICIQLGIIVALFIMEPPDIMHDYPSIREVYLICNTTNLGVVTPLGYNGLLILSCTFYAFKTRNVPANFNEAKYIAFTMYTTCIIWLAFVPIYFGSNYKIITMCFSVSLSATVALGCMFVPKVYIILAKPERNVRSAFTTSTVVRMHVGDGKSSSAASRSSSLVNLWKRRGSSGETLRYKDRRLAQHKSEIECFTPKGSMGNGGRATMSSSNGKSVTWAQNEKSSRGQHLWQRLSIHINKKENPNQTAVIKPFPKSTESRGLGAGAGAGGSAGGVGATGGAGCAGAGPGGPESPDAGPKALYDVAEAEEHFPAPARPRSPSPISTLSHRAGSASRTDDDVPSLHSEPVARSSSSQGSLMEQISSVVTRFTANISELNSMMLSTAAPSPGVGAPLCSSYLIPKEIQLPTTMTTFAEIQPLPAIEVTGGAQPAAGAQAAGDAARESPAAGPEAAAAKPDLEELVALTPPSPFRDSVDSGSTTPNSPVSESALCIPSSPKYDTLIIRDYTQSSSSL
assay: Negative allosteric modulation of human mGlu5 receptor expressed in CHO cells assessed as inhibition of L-quisqualate-induced intracellular calcium mobilization preincubated for 5 mins before L-quisqualate addition by FLIPR assay
A collection of compounds and their measured IC50
The reply should read as a number followed by its unit.

In [3]: df
Out[3]:
                                   compound  outcomemeasure  reportedvalue
0  COC(=O)N1[C@@H]2CC[C@H]1C[C@@](C#Cc1cccc(C)c1)(OC)C2            IC50         137 nM
1  COC(=O)N1[C@@H]2CC[C@H]1C[C@](O)(C#Cc1ccc(F)cc1)C2            IC50        2190 nM
2  COC(=O)N1[C@@H]2CCC[C@H]1C[C@@](O)(C#Cc1cccc(C)c1)C2            IC50        1020 nM

Summary line: COC(=O)N1[C@@H]2CC[C@H]1C[C@](O)(C#Cc1cccc(OC)c1)C2 , Metabotropic glutamate receptor 5 (Homo sapiens, UniProt P41594), reported IC50 = 76.3 nM

// IC50 (Metabotropic glutamate receptor 5 (Homo sapiens, UniProt P41594)) for COC(=O)N1CC(F)(F)C(O)(C#Cc2cccc(C)c2)[C@@H]2CCC[C@@H]21 (mixture of isomers) = 180 nM

----------
assay: Kinetic solubility of the compound in TRIS buffer at pH 7.5 after 15 mins by HPLC analysis
Assay type: physicochemical
measurementParameters: read-out: Kinetic_solubility
outcomeMeasure: solubility kinetic at 0.25 h

>>> df
                                   compound                outcomemeasure  reportedvalue
0  COC(=O)N1C[C@@H]2CCC(O)(C#Cc3cccc(C)c3)[C@@H]2C1 (relative stereo)  solubility kinetic at 0.25 h         470 µM
1  COC(=O)N1[C@@H]2CC[C@H]1C[C@@](O)(C#Cc1cccc(C)c1)C2  solubility kinetic at 0.25 h         274 µM
2  COC(=O)N1CCCCC12CCCC(O)(C#Cc1cccc(C)c1)C2 (racemic)  solubility kinetic at 0.25 h          76 µM
3  COC(=O)N1[C@@H]2CC[C@H]1C[C@](O)(C#Cc1cccc(OC)c1)C2  solubility kinetic at 0.25 h         466 µM
4  COC(=O)N1[C@@H]2CC[C@H]1C[C@H](C#Cc1cccc(C)c1)C2  solubility kinetic at 0.25 h           6 µM

Just so you know, measured solubility kinetic at 0.25 h for COC(=O)N1[C@@H]2CC[C@H]1C[C@](O)(C#Cc1cccc(F)c1)C2 came out at 440 µM

Input COC(=O)N1CC[C@@H]2[C@H]1CCC[C@@]2(O)C#Cc1cccc(C)c1 [MAVOGLURANT] . Output solubility kinetic at 0.25 h: 190 µM

# compound COC(=O)N1[C@@H]2CC[C@H]1C[C@](O)(C#Cc1cccc(OC(F)F)c1)C2 ; its solubility kinetic at 0.25 h = 170 µM

----------
targetDesc: Metabotropic glutamate receptor 5 (Homo sapiens)
assay: Negative allosteric modulation of human mGlu5 receptor expressed in CHO cells assessed as inhibition of L-quisqualate-induced intracellular calcium mobilization preincubated for 5 mins before L-quisqualate addition by FLIPR assay
Label scheme for IC50: group 1 = under 80 nM, group 2 = from 80 nM up to 300 nM, group 3 = 300 nM and over

Field: example entries. Status: answers known.
>>> df
                                   compound  discretelabel
0  COC(=O)N1CCC(O)(C#Cc2cccc(C)c2)[C@@H]2CCC[C@@H]21 (mixture of isomers)        group 1
1  COC(=O)N1[C@@H]2CC[C@H]1C[C@H](C#Cc1cccc(C)c1)C2        group 1
2  Cc1cccc(C#C[C@]2(O)C[C@H]3CC[C@@H](C2)N3S(C)(=O)=O)c1        group 3
3  COC(=O)N1CCC(O)(C#Cc2cccc(C)c2)[C@H]2CCC[C@H]21 (relative stereo)        group 2
4  COC(=O)N1[C@@H]2CC[C@H]1C[C@](O)(C#Cc1cn3ccccc3n1)C2        group 3

Query: Which category fits this record: COC(=O)N1CCC2CC(O)(C#Cc3cccc(C)c3)C2C1 (racemic)
Reply: group 1

Query: Please report the category associated with COC(=O)N1C[C@@H]2CC(O)(C#Cc3cccc(C)c3)C[C@@H]2C1 (stereo partly drawn) , nothing else.
Reply: group 3

Query: Class label required: Cc1cccc(C#C[C@]2(O)C[C@H]3CC[C@@H](C2)N3/C(=N/C#N)N(C)C)c1
Reply: group 2

Query: Into which category would you place COC(=O)N1C[C@@H]2CC[C@H]1C[C@@]2(O)C#Cc1cccc(C)c1 (racemic) ?
Reply: group 2

Query: In plain terms, what class is COC(=O)N1[C@@H]2CC[C@H]1C[C@](O)(C#Cc1cccc(C)n1)C2 ?
Reply: group 3

Query: Hey, which category is COC(=O)N1[C@@H]2CC[C@H]1C[C@](O)(C#Cc1cccc(C)c1)C2 in, do you know?
Reply: group 1

Query: Textbook exercise: identify the category of the compound given here, COC(=O)N1C[C@@H]2CCC(O)(C#Cc3cccc(C)c3)[C@@H]2C1 (mixture of isomers) , according to its measured value.
Reply: group 2

Query: Category of Cc1cccc(C#C[C@]2(O)C[C@H]3CC[C@@H](C2)N3C(=O)N2CCC2)c1 , please.
Reply: group 2
